# protocolDescription: BSK_LPS_PGE2: BioMAP Diversity Plus: LPS Assay for Prostaglandin E2 (PGE2) Biomarker Activity (AID 2283082)
# experimentalSetup: primary human HUVEC with PBMC; actives raise or lower the signal
Active and inactive are the calls of the source. How the source made its calls: active means hit-call score of the fitted dose curve at least 0.9, where 1 is the maximum; inactive means score below 0.9.
Hi there, use one of these labels in your reply, thanks! active, inactive

# input Lab log entry: COCC(C)OCC(C)O (centres undefined) — outcome as called in the assay?
# output inactive

# input Answer briefly: the call reported for COC(=O)CCCCC(=O)OC in this assay.
# output inactive

# input Fill in: this test's call for c1ccc2c(c1)Cc1ccccc1-2 is ___
# output inactive

# input Name the outcome recorded for C#C[C@]1(O)CC[C@H]2[C@@H]3CCC4=CC(=O)CC[C@@H]4[C@H]3CC[C@@]21C in the assay.
# output active

# input How did this test come out for CN1CCN(c2ccccc2/C=C2\SCCN(c3ccc(Cl)c(Cl)c3)C2=O)CC1 ?
# output inactive

# input Could you kindly confirm the outcome this assay logged for CC(=O)NC1(c2cccc(F)c2)CCN(CC[C@@]2(c3ccc(Cl)c(Cl)c3)CN(c3ccccc3)C(=O)CO2)CC1 ?
# output inactive
